target: glucocerebrosidase (Gcase) (Homo sapiens, UniProt P04062)
Construct: micellar solution containing 10 nM GCase and 100 nM saposin C
Sequence (P04062 40-536): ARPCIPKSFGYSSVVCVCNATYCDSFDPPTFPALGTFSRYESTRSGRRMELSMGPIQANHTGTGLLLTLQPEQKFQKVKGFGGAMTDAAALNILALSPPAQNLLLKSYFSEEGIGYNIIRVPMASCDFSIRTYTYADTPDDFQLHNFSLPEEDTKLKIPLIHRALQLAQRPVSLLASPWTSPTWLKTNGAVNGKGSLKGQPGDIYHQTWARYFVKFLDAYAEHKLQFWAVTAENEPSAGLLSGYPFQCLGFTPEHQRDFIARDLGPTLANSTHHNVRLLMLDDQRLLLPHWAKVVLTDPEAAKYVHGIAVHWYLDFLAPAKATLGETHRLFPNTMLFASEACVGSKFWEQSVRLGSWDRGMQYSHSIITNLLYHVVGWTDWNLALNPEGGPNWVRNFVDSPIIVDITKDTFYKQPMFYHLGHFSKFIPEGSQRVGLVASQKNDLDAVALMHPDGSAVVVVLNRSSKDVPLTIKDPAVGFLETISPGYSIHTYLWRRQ
experiment: Glucocerebrosidase (Gcase) activation assay, 4-methylumbelliferyl-beta-D-glucopyranoside substrate, fluorescence readout
Type: biochemical
reported.conditions: test compound at 0.1 μM; read-out: Percent Gcase Activation, 0.1 μM Test Compound
Collected activation at 0.1 µM values appear next to each entry.
test.readout: activation at 0.1 µM

Cc1cc(C)n2ccc(C(=O)NC3CCCC34CCCCO4)c2n1 (stereo not shown) [III-138] :: 10 to 20%
Cc1cc(C)n2ccc(C(=O)NCC3CCC(F)(F)CC3)c2n1 [III-153] :: 10 to 20%
[2H]C1(NC(=O)c2ccn3c(C)ccnc23)CCCc2ccccc21 (stereo not shown) [III-263] :: > 20%
COCc1cc(C2CC2)n2ccc(C(=O)NC3(C)CCOc4cc(F)c(F)cc43)c2n1 (stereo not shown) [III-270] :: < 10%
Cc1cc(C)n2ccc(C(=O)N[C@@H](C)c3ccc(F)cc3)c2n1 [III-78] :: > 20%
CNc1cc(C)n2ccc(C(=O)N[C@H]3CC[C@H](OCC(C)C)CC3)c2n1 [III-71] :: > 20%
Cc1ccnc2c(C(=O)NC3(C)CCOc4ccccc43)ccn12 (stereo not shown) [III-257] :: 10 to 20%
Cc1cc(C)n2ccc(C(=O)NC3CC=C(c4cccs4)CC3)c2n1 (stereo not shown) [III-186] :: > 20%
CCCCO[C@H]1CC[C@H](NC(=O)c2ccn3c(C)cc(F)nc23)CC1 [III-72] :: < 10%
Cc1cc(O)n2ccc(C(=O)NC3CCCc4ccccc43)c2n1 (stereo not shown) [III-56] :: < 10%
Cc1cc(Cl)nc2c(C(=O)NC3c4ccccc4C4CC3C4)ccn12 (stereo not shown) [III-69] :: > 20%
Cc1cc(C)n2ccc(C(=O)N[C@H]3CC[C@H](OC(C)C)CC3)c2n1 [III-106] :: 10 to 20%
CCCOC[C@H]1CC[C@H](NC(=O)c2ccn3c(C)cc(C)nc23)CC1 [III-114] :: > 20%
CCCCCOC1CCC(NC(=O)c2ccn3c(C)cc(C)nc23)CC1 (stereo not shown) [III-22] :: > 20%
Cc1cc(C)n2ccc(C(=O)NC3CCCC(Oc4cccs4)C3)c2n1 (stereo not shown) [III-191] :: > 20%
Cc1cc(C)n2ccc(C(=O)NC3CCC4(CCCO4)CC3)c2n1 (stereo not shown) [III-141] :: < 10%
C#Cc1ccc(NC(=O)c2ccn3c(C)cc(C)nc23)cc1 [III-2] :: > 20%
CCC(F)(F)CN1CCC(NC(=O)c2ccn3c(C)cc(C)nc23)CC1 [III-204] :: < 10%
Cc1cc(C)n2ccc(C(=O)N[C@H]3CC[C@H](Oc4cccnc4)CC3)c2n1 [III-206] :: < 10%
COc1cc(NC(=O)c2ccn3c(C)cc(C)nc23)ccc1-c1cnco1 [III-87] :: > 20%
[2H]C1(NC(=O)c2ccn3c(C(C)C)cc(COC)nc23)CCOc2cc(F)c(F)cc21 (stereo not shown) [III-60] :: < 10%
Cc1cc(C)n2ccc(C(=O)Nc3ccc(OCCCCN)cc3)c2n1 [III-19] :: < 10%
